Reported IC50 values for the following binders.
Molecular target: T1, Human IL-23 (human, UniProt Q9NPF7 20-189; P29460 23-328)
T1 construct: Heterodimer of p40 and p19; For the crystal it was secreted from insect cells from a bi-cistronic construct; also called interleukin 23; human recombinant IL-23
T1 sequence (looked up) 1: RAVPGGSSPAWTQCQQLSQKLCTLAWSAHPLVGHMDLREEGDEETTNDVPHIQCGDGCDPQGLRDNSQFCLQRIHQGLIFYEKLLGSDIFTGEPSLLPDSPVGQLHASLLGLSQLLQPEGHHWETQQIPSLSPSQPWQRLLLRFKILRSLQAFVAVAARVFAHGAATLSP
T1 sequence (looked up) 2: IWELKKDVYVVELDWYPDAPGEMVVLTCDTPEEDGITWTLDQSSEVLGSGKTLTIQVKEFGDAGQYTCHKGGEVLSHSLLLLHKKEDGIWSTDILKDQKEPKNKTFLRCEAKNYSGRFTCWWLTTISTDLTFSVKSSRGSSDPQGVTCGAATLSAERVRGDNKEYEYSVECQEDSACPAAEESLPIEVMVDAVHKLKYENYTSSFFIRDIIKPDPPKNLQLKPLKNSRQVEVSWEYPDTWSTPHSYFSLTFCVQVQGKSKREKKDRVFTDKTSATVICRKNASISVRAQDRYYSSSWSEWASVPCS
Assay: competitive ELISA: Adnectin pre-incubated with 1 nM IL-23, binding to coated IL-23R-Fc
The reply should be a number in nM, with the unit left off.

See these solved cases before continuing.
binder	reported
1454B08 P87→A (designed binder, Point variant of 1454B08) MGVSDVPRDLEVVAATPTSLLISWEHDYPYRRYYRITYGETGGNSPVQEFTVPKDVDTATISGLKPGVDYTITVYAVTSSYKYDMQYSAISINYRTEIDKPSQHHHHHH	8.3
1454B08 Y73→A (designed binder, Point variant of 1454B08) MGVSDVPRDLEVVAATPTSLLISWEHDYPYRRYYRITYGETGGNSPVQEFTVPKDVDTATISGLKPGVDYTITVAAVTSSYKYDMQYSPISINYRTEIDKPSQHHHHHH	0.65
1454B08 V75→Y (designed binder, Point variant of 1454B08) MGVSDVPRDLEVVAATPTSLLISWEHDYPYRRYYRITYGETGGNSPVQEFTVPKDVDTATISGLKPGVDYTITVYAYTSSYKYDMQYSPISINYRTEIDKPSQHHHHHH	2.2
Anti-IL-23 Adnectin 1454B08 (designed binder, 10Fn3-based Adnectin expressed in E. coli followed by a HIS6 tag; Fn3 domain is positions 3-96 of the entry; also called Parent) MGVSDVPRDLEVVAATPTSLLISWEHDYPYRRYYRITYGETGGNSPVQEFTVPKDVDTATISGLKPGVDYTITVYAVTSSYKYDMQYSPISINYRTEIDKPSQHHHHHH	1
1454B08 V45→N (designed binder, Point variant of 1454B08) MGVSDVPRDLEVVAATPTSLLISWEHDYPYRRYYRITYGETGGNSPNQEFTVPKDVDTATISGLKPGVDYTITVYAVTSSYKYDMQYSPISINYRTEIDKPSQHHHHHH	0.54
1454B08 T35→N (designed binder, Point variant of 1454B08) MGVSDVPRDLEVVAATPTSLLISWEHDYPYRRYYRINYGETGGNSPVQEFTVPKDVDTATISGLKPGVDYTITVYAVTSSYKYDMQYSPISINYRTEIDKPSQHHHHHH	1.7
1454B08 V75→Q (designed binder, Point variant of 1454B08) MGVSDVPRDLEVVAATPTSLLISWEHDYPYRRYYRITYGETGGNSPVQEFTVPKDVDTATISGLKPGVDYTITVYAQTSSYKYDMQYSPISINYRTEIDKPSQHHHHHH	2.3

// moving on: another record for IC50
// IC50 value for 1454B08 V45→E (designed binder, Point variant of 1454B08) MGVSDVPRDLEVVAATPTSLLISWEHDYPYRRYYRITYGETGGNSPEQEFTVPKDVDTATISGLKPGVDYTITVYAVTSSYKYDMQYSPISINYRTEIDKPSQHHHHHH : 0.51
